Reference source for all entries: patent US10952963B2

Procedure: Multiple antioxidants, chelating agents, and buffers were evaluated to stabilize both epinephrine and ketorolac, which include: sodium bisulfite, sodium metabisulfite, EDTA Sodium Dihydrate (i.e., EDTA Sodium), citric acid, sodium phosphate dibasic, and PEG 400. Solution pH values were evaluated from a pH of 3.9-6.0.
EXPERIMENTAL READOUT: pH range of maximum stability

Solved entries (count: 2):
> print(dat)
                                   molecule  reading
1  O=C(c1ccccc1)c1ccc2n1CCC2C(=O)O (stereo not shown)      6-7
2         CCCN1CCCC[C@H]1C(=O)Nc1c(C)cccc1C      3-4

// query Value lookup for pH range of maximum stability; key = Clc1cccc(Cl)c1N=C1NCCN1
// result 3-4

// query Then this molecule: CNC[C@H](O)c1ccc(O)c(O)c1 [epinephrine]
// result 3-4
